- ASSAY_SUMMARY: Human HepG2 cell viability assay in 384 well format
- Format: toxicity, cell-based
- Set-up: dose 125 nL, time 70.5 hour; concentration not given beside the values
- TEST_SETTINGS: HepG2 cells, read-out: Inhibition
ENDPOINT_LABEL: cytotoxicity at 70.5 h (%)
Hi! Could you send only the number? It should be in %, unit omitted.

Input c1cc(CNCc2cccc3c2OCCO3)cc(Cn2cncn2)c1 , output reported cytotoxicity at 70.5 h.
-10.5

Input CN(C)c1cc(CNCc2ccc(N3CCOCC3)cc2)ccn1 , output reported cytotoxicity at 70.5 h.
-6.16

Input Cc1cc(N(C)CCOc2ccccc2F)nc(N)n1 , output reported cytotoxicity at 70.5 h.
-2.43

###

Give cytotoxicity at 70.5 h for every item shown.
- ASSAY_SUMMARY: Human HepG2 cell viability assay in 384 well format
- Type: toxicity, cell-based
- Design: dose 125 nL, time 70.5 hour; concentration not given beside the values
- TEST_SETTINGS: HepG2 cells, read-out: Inhibition
Hi! Could you send only the number? It should be in %, unit omitted.

Input CCOc1ccc(NC(C)=O)cc1S(=O)(=O)Nc1nnc(C)s1 , output reported cytotoxicity at 70.5 h.
-10.8

Input O=C(c1ncccc1O)N1CCc2c(ncnc2N2CCOCC2)C1 , output reported cytotoxicity at 70.5 h.
-4.02

Input Cc1cccc(NC2CCN(C(=O)Nc3ccncc3)CC2)n1 , output reported cytotoxicity at 70.5 h.
24.2

Input CCOC(=O)c1ccc(Nc2ccc(OC)c(N3CCCC3=O)c2)nc1 , output reported cytotoxicity at 70.5 h.
-14.4

###

- ASSAY_SUMMARY: Human HepG2 cell viability assay in 384 well format
- Type: toxicity, cell-based
- Set-up: dose 125 nL, time 70.5 hour; concentration not given beside the values
- TEST_SETTINGS: HepG2 cells, read-out: Inhibition
ENDPOINT_LABEL: cytotoxicity at 70.5 h (%)
Hi! Could you send only the number? It should be in %, unit omitted.

Input CN1CCOC(CNCc2cnc(C(C)(C)C)s2)C1 (centres undefined) , output reported cytotoxicity at 70.5 h.
0.446

Input CC(O)CN1CCC(CNCc2ccccc2C(F)(F)F)CC1 (centres undefined) , output reported cytotoxicity at 70.5 h.
13.9

Input O=C(NCc1cnc2n1CCN(Cc1nccs1)C2)c1ccno1 , output reported cytotoxicity at 70.5 h.
-3.38

Input CCC(=O)N1CCCC(c2nc(N(C)C)ncc2-c2ccc(F)cc2)C1 (centres undefined) , output reported cytotoxicity at 70.5 h.
3.25

Input COc1ccc(OC)c(C(C)NC(=O)c2nn(C)c(C)c2Br)c1 (centres undefined) , output reported cytotoxicity at 70.5 h.
27.1

Input COc1cc(C(C)=O)ccc1OCCNCc1ccco1 , output reported cytotoxicity at 70.5 h.
-3.22

Input CCc1noc(C2CCCCN2C(=O)c2ccc(C)o2)n1 (centres undefined) , output reported cytotoxicity at 70.5 h.
14

Input O=C(Nc1ccnc(OC2CCOC2)c1)c1cc(F)ccc1F (centres undefined) , output reported cytotoxicity at 70.5 h.
14.1

Input Cc1cnccc1NCCn1ccnc1C1CCCCC1 , output reported cytotoxicity at 70.5 h.
0.0765

Input Cc1nc(C2CN(C)CCO2)cc(N2CCC(CO)CC2)n1 (centres undefined) , output reported cytotoxicity at 70.5 h.
-4.15

Input O=C(c1ccco1)N1C[C@H]2CN(Cc3cccc(F)c3)C(=O)[C@H]2C1 , output reported cytotoxicity at 70.5 h.
-7.79

Input C=C(C)CN(CC)C(=O)CN(C)C1CCc2ccccc21 (centres undefined) , output reported cytotoxicity at 70.5 h.
-2.32

Input Cc1cccc(C(=O)Nc2cccc3c2CCCC3)n1 , output reported cytotoxicity at 70.5 h.
-1.46

Input Cc1nc(C)n(CC2CCCN(Cc3nc(C4CC4)no3)C2)n1 (centres undefined) , output reported cytotoxicity at 70.5 h.
-1.73

Input Cc1ccc([C@@H]2CN(C(=O)c3cc(C)no3)C[C@H]2NC(=O)C2CC2)cc1 , output reported cytotoxicity at 70.5 h.
-6.47

Input Cc1ccc(NC2CCN(C(=O)CCNc3ncccn3)CC2)nn1 , output reported cytotoxicity at 70.5 h.
-9.43

Input Cn1cc(CN2CCC(c3cc(COc4ccc(Cl)cc4)[nH]n3)C2)cn1 (centres undefined) , output reported cytotoxicity at 70.5 h.
0.81

Input Fc1cccc(CN2CCN(Cc3cscn3)CC2)c1 , output reported cytotoxicity at 70.5 h.
-4.73

Input CNc1cc(CCNC(=O)c2cccnc2)nc(-c2ccncc2)n1 , output reported cytotoxicity at 70.5 h.
-7.53

###

- ASSAY_SUMMARY: Human HepG2 cell viability assay in 384 well format
- Assay type: toxicity, cell-based
- Set-up: dose 125 nL, time 70.5 hour; concentration not given beside the values
- TEST_SETTINGS: HepG2 cells, read-out: Inhibition
ENDPOINT_LABEL: cytotoxicity at 70.5 h (%)
Hi! Could you send only the number? It should be in %, unit omitted.

Input CCc1cnc(C)nc1N1CCN(Cc2ccc(-c3cc[nH]n3)o2)CC1 , output reported cytotoxicity at 70.5 h.
9.84

Input Cc1nc[nH]c1CN1CCCC(CNC(=O)c2ccncn2)C1 (stereo not drawn) , output reported cytotoxicity at 70.5 h.
-7.41

Input CN(C)S(=O)(=O)N1CC[C@]2(O)CCN(Cc3cccc(C#N)c3)C[C@@H]2C1 , output reported cytotoxicity at 70.5 h.
9.63

Input COc1ccc(N2CCN(C(=O)[C@H]3[C@@H]4CNC[C@@H]43)CC2(C)C)cc1 , output reported cytotoxicity at 70.5 h.
18.4

Input CCOc1ccc(CN2C(=O)CC(CC)(CC)C2=O)nc1 , output reported cytotoxicity at 70.5 h.
0.923

Input CC(C)COC(C)C(=O)NCCNC(=O)C(C)C (stereo not drawn) , output reported cytotoxicity at 70.5 h.
-1.79

Input Cc1nn(C)c2c(NCc3cccnc3)nc(C(C)C)nc12 , output reported cytotoxicity at 70.5 h.
12.4

Input Cc1nc(C)c(C(=O)N2CCC(Nc3cccnc3)CC2)s1 , output reported cytotoxicity at 70.5 h.
-8.38

Input CC(C)c1nnc2n1CC(CNCc1nnc(C(C)(C)C)o1)CC2 (stereo not drawn) , output reported cytotoxicity at 70.5 h.
9.48

Input COc1ccc(Br)c(NC(=O)NCc2ncnn2C)c1 , output reported cytotoxicity at 70.5 h.
-9.33

Input NC(=O)c1ccc(OCCCN2CCC3(CC2)OCCCC3O)cc1 (stereo not drawn) , output reported cytotoxicity at 70.5 h.
-1.53

Input CS(=O)(=O)NCc1cncc2c1CCN(CC1CCOC1)C2 (stereo not drawn) , output reported cytotoxicity at 70.5 h.
2.49

Input COCc1ccc(C(=O)N2CCCN(Cc3ccc(F)cc3)CC2)s1 , output reported cytotoxicity at 70.5 h.
30.1

Input CC(C)Nc1ncnc2c1CCN(C(=O)N1CCOCC1)CC2 , output reported cytotoxicity at 70.5 h.
10.6

Input O=C(c1cscn1)N1CCc2ncc(CN3CCOCC3)n2CC1 , output reported cytotoxicity at 70.5 h.
-15.7

Input CCCSCC(=O)NCc1cccc(CN(C)CC)c1 , output reported cytotoxicity at 70.5 h.
-9.96

Input Cn1ccnc1CN1CCCN(C(=O)c2ccc3[nH]cnc3c2)CC1 , output reported cytotoxicity at 70.5 h.
-8.02

Input Cc1ocnc1C(=O)N1CCC(c2nccn2Cc2ccncc2)CC1 , output reported cytotoxicity at 70.5 h.
-6.78

###

- ASSAY_SUMMARY: Human HepG2 cell viability assay in 384 well format
- Assay type: toxicity, cell-based
- Design: dose 125 nL, time 70.5 hour; concentration not given beside the values
- TEST_SETTINGS: HepG2 cells, read-out: Inhibition
Give cytotoxicity at 70.5 h for every item shown.
Hi! Could you send only the number? It should be in %, unit omitted.

Input Cn1ncc(Cl)c1C(=O)N1CCc2nc3sccc3c(=O)n2CC1 , output reported cytotoxicity at 70.5 h.
33.8

Input COCCN(C(=O)c1ccoc1C)c1ccc(C#N)cc1 , output reported cytotoxicity at 70.5 h.
-4.2

Input COc1ccc(CC(C)(O)CNC(=O)Cc2ccc(F)cc2)cc1 (stereo not drawn) , output reported cytotoxicity at 70.5 h.
-21

Input CN1CCCN(c2nc(C3CC3)ns2)CC1 , output reported cytotoxicity at 70.5 h.
-3.92

Input Cc1ncsc1CCCn1ccnc1-c1cc2n(n1)CCCNC2 , output reported cytotoxicity at 70.5 h.
-9.03

Input CCn1cc(CNC(=O)CC(C)C)cn1 , output reported cytotoxicity at 70.5 h.
3.41

Input Cc1cc(C(F)(F)F)nn1C(C)C(=O)NN1CCOCC1 (stereo not drawn) , output reported cytotoxicity at 70.5 h.
-7.56

Input Cc1cc(C)cc(C(=O)NCc2ncnn2C)c1 , output reported cytotoxicity at 70.5 h.
-5.75

Input c1csc(CN2Cc3nccn3CC(Cn3cncn3)C2)c1 (stereo not drawn) , output reported cytotoxicity at 70.5 h.
2.43

Input C[C@H](NC(=O)C1CC1)c1nc2cc(-c3ccc(F)cc3)ncn2n1 , output reported cytotoxicity at 70.5 h.
2.87

Input O=C(CC1CCc2ccccc21)N1CCC(O)(c2cccnc2)CC1 (stereo not drawn) , output reported cytotoxicity at 70.5 h.
-9.82

Input N#Cc1ccccc1C(=O)N1C[C@@H](CN2CCCCCC2)[C@@H](CO)C1 , output reported cytotoxicity at 70.5 h.
-7.65

Input COc1cc2c(cc1OC)S(=O)(=O)N(Cc1ccccc1)C2=O , output reported cytotoxicity at 70.5 h.
-14.6

Input COc1ccc(CN(C(=O)C2CCCOC2)c2ccncc2)cc1 (stereo not drawn) , output reported cytotoxicity at 70.5 h.
-3.58

Input CC(CNC(=O)c1ccc(F)cc1Cl)N1CCCC1 (stereo not drawn) , output reported cytotoxicity at 70.5 h.
-7.32

Input NC(=O)C1CCC(NC(=O)COc2ccc(Cl)c(Cl)c2)CC1 (stereo not drawn) , output reported cytotoxicity at 70.5 h.
2.5

Input Cc1c(OCC(=O)NCc2ccccc2)c(=O)ccn1C , output reported cytotoxicity at 70.5 h.
-17.6

Input N#CCCN(C(=O)CN1CCCC1c1ccsc1)c1ccccc1F (stereo not drawn) , output reported cytotoxicity at 70.5 h.
-14

Input CCCn1ncc(C(=O)NC2CCN(C3CCOCC3)CC2)c1C , output reported cytotoxicity at 70.5 h.
-2.11

Input CC(C)(C)c1ncc(C(=O)NCCNC(=O)Cc2ccccc2)s1 , output reported cytotoxicity at 70.5 h.
-5.68

Input CCc1ncc(C(=O)N2CC(Oc3ccccc3Cl)C2)cn1 , output reported cytotoxicity at 70.5 h.
10.7

Input Cc1cnn(CC(C)NCc2cccnc2)c1 (stereo not drawn) , output reported cytotoxicity at 70.5 h.
-5.07

Input O=S(=O)(NCCc1nc(-c2cccnc2)n[nH]1)NCc1ccccc1 , output reported cytotoxicity at 70.5 h.
-7.05
